test: Autosampler stability at 4 °C of extracted antibiotic-spiked plasma/CAMHB samples; conditions: plasma extracted samples, 7 h autosampler 4 °C; HQC: nominal mg/L CAZ 150, FEP 200, PIP 250, ATM 300, MEM 200, DOR 175, LVX 30, CEFT 250, TZB 87.5, TGC 20, AVI 30, FOF 1000
measurement.kind: Mean accuracy (%), Table S7

Reported Mean accuracy (%), Table S7, molecule CC(C)(O/N=C(\C(=O)N[C@@H]1C(=O)N2C(C(=O)[O-])=C(C[n+]3ccccc3)CS[C@H]12)c1csc(N)n1)C(=O)O : ____
109.6

Reported Mean accuracy (%), Table S7, molecule NC(=O)[C@@H]1CC[C@@H]2CN1C(=O)N2OS(=O)(=O)O : ____
96.2

Reported Mean accuracy (%), Table S7, molecule CN(C)c1cc(NC(=O)CNC(C)(C)C)c(O)c2c1C[C@H]1C[C@H]3[C@H](N(C)C)C(O)=C(C(N)=O)C(=O)[C@@]3(O)C(O)=C1C2=O : ____
110.0

Reported Mean accuracy (%), Table S7, molecule C[C@H]1COc2c(N3CCN(C)CC3)c(F)cc3c(=O)c(C(=O)O)cn1c23 : ____
101.3

Reported Mean accuracy (%), Table S7, molecule C[C@@H](O)[C@H]1C(=O)N2C(C(=O)O)=C(S[C@@H]3CN[C@H](C(=O)N(C)C)C3)[C@H](C)[C@H]12 : ____
99.6

Reported Mean accuracy (%), Table S7, molecule C[C@H]1[C@H](NC(=O)/C(=N\OC(C)(C)C(=O)O)c2csc(N)n2)C(=O)N1S(=O)(=O)O : ____
109.1
